Hey, just so you know, these numbers are from the RNAGym collection of RNA variant scans (doi:10.1021/acssynbio.7b00057).

B1: Pistol ribozyme (parent)
chain: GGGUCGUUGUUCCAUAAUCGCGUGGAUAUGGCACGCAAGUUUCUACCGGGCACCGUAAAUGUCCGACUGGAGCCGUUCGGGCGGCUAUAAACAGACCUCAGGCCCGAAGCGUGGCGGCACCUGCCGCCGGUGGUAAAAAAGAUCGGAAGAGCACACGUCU

Variants of: B1
Test: aptazyme ON/OFF ratio, guanine; higher = stronger switching; co-transcriptional cleavage with and without guanine
measurementName: aptazyme ON/OFF ratio
Lab note: write the figure by itself, no unit.

// solved cases for aptazyme ON/OFF ratio follow
[
  {
    "mutationNotation": "U7G U8G U10A C12U C13A",
    "aptazyme ON/OFF ratio": 1.16
  },
  {
    "mutationNotation": "U8C G9A U10G U11G C12U C13A",
    "aptazyme ON/OFF ratio": 1.09
  },
  {
    "mutationNotation": "U7G U8C G9C U10C C12A C13G",
    "aptazyme ON/OFF ratio": 1.1
  },
  {
    "mutationNotation": "U7A G9U U10G C12G C13G",
    "aptazyme ON/OFF ratio": 1.25
  },
  {
    "mutationNotation": "U8C U11C C12G C13A",
    "aptazyme ON/OFF ratio": 1.37
  }
]

Given the variant U8G G9C U10A C12U , what is its reported aptazyme ON/OFF ratio?
1.08

Further, for U8G G9C U10A C13A ?
1.07

Further, for U7A G9U U10C U11A C12U C13A ?
1.23

Further, for U7G G9U U11A C12U C13G ?
1.27

Further, for U7A G9A U11G C12A ?
1.18

Further, for U7G U8G G9U U10A U11A C12U ?
1.31
